- Test system: Acinetobacter baumannii NCTC 13304 (OXA-27)
- Assay type: cell-based
- measurement.setup: NCTC 13304
Bridge positions count the residues as written; N and C are the ends. Square brackets hold non-standard residues; d marks the D form. Peptide text beside a SMILES is read from it. * marks the point of attachment. Dab(CH2SO3H) = N[C@@H](CCNCS(=O)(=O)O)C(=O)O; Heptanoyl(6-Me) = CC(C)CCCCC(=O)*; Sulfomethyl = O=S(=O)(O)C*; Heptanoyl = CCCCCCC(=O)*; Orn = NCCC[C@H](N)C(=O)O; Dab = NCC[C@H](N)C(=O)O; Dap = NC[C@H](N)C(=O)O
readout: MIC (µg/mL)
Number in µg/mL, nothing else.

Please give the measured MIC for this compound: CC(C)CCCCC(=O)N[C@@H](CCN)C(=O)N[C@H](C(=O)N[C@@H](CN)C(=O)N[C@H]1CCNC(=O)[C@H]([C@@H](C)O)NC(=O)[C@H](CCNCS(=O)(=O)O)NC(=O)[C@H](CCN)NC(=O)[C@H]([C@@H](C)O)NC(=O)[C@@H](Cc2ccccc2)NC(=O)[C@H](CCN)NC1=O)[C@@H](C)O [Compound 120] ({Heptanoyl(6-Me)}-[Dab]T[Dap][Dab][Dab][dF]T[Dab][Dab(CH2SO3H)]T; lactam 4-C)
0.06

Please give the measured MIC for this compound: CC(C)CCCCC(=O)N[C@@H](CCN)C(=O)N[C@H](C(=O)N[C@@H](CN)C(=O)N[C@H]1CCNC(=O)[C@H]([C@@H](C)O)NC(=O)[C@H](CCN)NC(=O)[C@H](CCN)NC(=O)[C@H]([C@@H](C)OCS(=O)(=O)O)NC(=O)[C@@H](Cc2ccccc2)NC(=O)[C@H](CCN)NC1=O)[C@@H](C)O [Compound 114] ({Heptanoyl(6-Me)}-[Dab]T[Dap][Dab][Dab][dF]T(Sulfomethyl)[Dab][Dab]T; lactam 4-C)
0.06

Please give the measured MIC for this compound: CCCCCCC(=O)N[C@@H](CCN)C(=O)N[C@H](C(=O)N[C@H](CO)C(=O)N[C@H]1CCNC(=O)[C@H]([C@@H](C)O)NC(=O)[C@H](CCCN)NC(=O)[C@H](CCN)NC(=O)[C@H]([C@@H](C)O)NC(=O)[C@@H](Cc2ccccc2)NC(=O)[C@H](CCN)NC1=O)[C@@H](C)O [Compound 89] (Heptanoyl-[Dab]T[dS][Dab][Dab][dF]T[Dab][Orn]T; lactam 4-C)
0.03
